- Method Summary: R.O.U.R.: recovery of the antibiotic from the urine of female rats following oral administration
- Type: in vivo
- Run Conditions: rat
Would you mind telling me the reported dose excreted of each entry?
Form entry: enter the amount, then its unit.

Challenge: Can you look up the measured dose excreted of N#CCCC1=C(C(=O)O)N2C(=O)[C@@H](NC(=O)Cc3cccs3)[C@H]2SC1 for me?
Response given: 2.1%

Challenge: # repeat for CCC1=C(C(=O)O)N2C(=O)[C@@H](NC(=O)[C@H](N)c3ccccc3)[C@H]2SC1.O=C(O)C(F)(F)F
Response given: 45%
